Assayed target: chicken gizzard smooth muscle myosin subfragment-1 chemically crosslinked to cardiac or skeletal actin (Gallus gallus)
pIC50: −log10 of the molar value.
Quantity measured: pIC50

CN[C@H](C)CNC(=O)c1ccc(-c2ccccc2C#N)nc1NCCc1cccc(F)c1 ... 5.72
Cc1ccc(CNC(=O)c2ccc(-c3ccccc3C#N)nc2NCCc2cccc(F)c2)cc1 ... 4.61

A = N#Cc1ccccc1-c1ccc(C(=O)NCCCN2C(=O)CC[C@H]2CN)c(NCCc2cccc(F)c2)n1
B = N#Cc1ccccc1-c1ccc(C(=O)NC[C@H]2CCC(=O)N2CCCCCN)c(NCCc2cccc(F)c2)n1
Input: Select the item whose pIC50 value is smaller, choosing between A and B . Please identify the chosen entry by its label.
Output: A

----------
Assayed target: chicken gizzard smooth muscle myosin subfragment-1 chemically crosslinked to cardiac or skeletal actin (Gallus gallus, UniProt P10587)
pIC50: −log10 of the molar value.
Quantity measured: pIC50

O=C(NCc1cccnc1)c1ccc(-c2ccccc2)nc1NCCc1cc(F)ccc1F ... 7.10
O=C(NCc1cccnc1)c1ccc(-c2ccc(F)cc2Cl)nc1NCCc1cccc(F)c1 ... 5.86
C[C@H](CNC(=O)c1ccc(-c2ccccc2C#N)nc1NCCc1cccc(F)c1)NC(=O)CNC(=O)OC(C)(C)C ... 5.64
O=C(NCCc1cccnc1)c1ccc(-c2ccccc2)nc1NCCc1ccccc1 ... 5.51
C[C@H](CNC(=O)c1cc(F)c(-c2cnn(C)c2)nc1NCCc1cccc(F)c1)NC(=O)[C@H](CO)NC(=O)OC(C)(C)C ... 5.65
N#Cc1ccccc1-c1ccc(C(=O)NCC2(CCN=[N+]=[N-])CCCNC2=O)c(NCCc2cccc(F)c2)n1 (stereo not drawn) ... 4.80
O=C(NCc1cccnc1)c1ccc(-c2cc(CO)ccc2Cl)nc1NCCc1cccc(F)c1 ... 5.93
CC[C@H](CNC(=O)c1cc(F)c(-c2cn[nH]c2)nc1NCCc1cccc(F)c1)C(=O)OC ... 6.93

A = COC(=O)[C@H](C)CNC(=O)c1ccc(-c2ccccc2C#N)nc1NCCc1cccc(F)c1
B = Cn1cc(-c2nc(NCCc3cccc(F)c3)c(C(=O)NCC(C)(C)O)cc2F)cn1
Input: Pick the one with the larger pIC50: A vs B Please identify the chosen entry by its label.
Output: A
(A: 6.73, B: 6.42)

I = CC(C)(C)OC(=O)NCCCN1CCC(CNC(=O)c2ccc(-c3ccccc3C#N)nc2NCCc2cccc(F)c2)C1=O (stereo not drawn)
II = CC(=O)N1CCC(CNC(=O)c2ccc(-c3ccccc3C#N)nc2NCCc2cccc(F)c2)CC1
III = COC(=O)N1CCNC[C@@H]1CNC(=O)c1ccc(-c2ccccc2C#N)nc1NCCc1cccc(F)c1
IV = CC[C@H](CNC(=O)c1cc(F)c(-c2cnn(C)c2)nc1NCCc1cccc(F)c1)NC(=O)CNC(=O)OC(C)(C)C
V = CC(C)(C)OC(=O)NC[C@H](NC(=O)c1ccc(-c2ccccc2C#N)nc1NCCc1cccc(F)c1)C(=O)O
Input: Please order the records by their reported pIC50, lowest number first. # format: label list in the order the request specifies
Output: V, III, IV, II, I
(V: 4.52, III: 4.94, IV: 5.52, II: 5.77, I: 6.98)

1 = N#Cc1ccccc1-c1ccc(C(=O)NC[C@H]2CN(C(=O)CCCN)CCN2)c(NCCc2cccc(F)c2)n1
2 = O=C(Nc1ccccn1)c1ccc(-c2ccccc2)nc1NCCc1ccccn1
3 = Cc1cc(C(=O)NC[C@H]2CCCN2C(=O)OC(C)(C)C)c(NCCc2cccc(F)c2)nc1-c1cnn(C)c1
4 = Cc1ccccc1CCNc1nc(-c2ccccc2C#N)ccc1C(=O)NCc1cccnc1
5 = N#Cc1ccccc1-c1ccc(C(=O)NC[C@@H]2CCCN2C(=O)CN)c(NCCc2cccc(F)c2)n1
Input: Please order the records by their reported pIC50, lowest number first. # format: label list in the order the request specifies
Output: 1, 2, 3, 5, 4
(1: 4.91, 2: 5.14, 3: 5.43, 5: 6.00, 4: 7.12)

FYI, the data here is from patent US7932270B2.
